- tested target: MAT2A (Homo sapiens, UniProt P31153)
- Construct: His6; made in house; host or cells: SF9 insect cells
- Sequence (P31153 whole entry): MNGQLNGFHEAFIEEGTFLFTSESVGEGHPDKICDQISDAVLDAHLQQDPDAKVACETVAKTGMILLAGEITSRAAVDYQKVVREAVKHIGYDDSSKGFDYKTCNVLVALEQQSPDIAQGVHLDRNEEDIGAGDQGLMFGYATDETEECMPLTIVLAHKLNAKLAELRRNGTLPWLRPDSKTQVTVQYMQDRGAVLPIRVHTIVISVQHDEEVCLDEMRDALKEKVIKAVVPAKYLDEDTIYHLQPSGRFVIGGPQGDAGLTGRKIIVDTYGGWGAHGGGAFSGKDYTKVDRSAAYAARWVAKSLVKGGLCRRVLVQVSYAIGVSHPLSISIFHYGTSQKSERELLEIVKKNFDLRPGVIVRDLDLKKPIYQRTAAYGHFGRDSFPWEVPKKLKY
- assay method text: MAT2A biochemical assay (colorimetric inorganic phosphate detection, PiColorLock)
- run conditions: recombinant His6-tagged MAT2A 1 μg/ml; 60 minutes preincubation at 25° C.; L-Met 80 μM, ATP 100 μM; 60 minutes reaction; read at 623 nm; read-out: MAT2A Inhibition Score
pIC50: −log10 of the molar value.
Provide the reported pIC50 of each item.

// query # input compound: Cc1cc(Nc2[nH]c3c(-c4ccccc4)c(-c4ccccc4)nn3c(=O)c2-c2ccc3ncccc3c2)n[nH]1 ; wanted: its pIC50
// result > 7.00

// query # input compound: Cc1[nH]c2c(-c3ccccc3)c(-c3ccccc3)nn2c(=O)c1-c1ccc2ncccc2c1 ; wanted: its pIC50
// result > 7.00

// query # input compound: COc1ccc(-c2c(Nc3ncncn3)[nH]c3c(C4=CCCCC4)c(-c4ccccc4)nn3c2=O)cc1 ; wanted: its pIC50
// result > 7.00

// query # input compound: COc1ccc(-c2c(Nc3ccccn3)[nH]c3c(-c4ccccc4)c(-c4ccccc4)nn3c2=O)cc1 ; wanted: its pIC50
// result > 7.00

// query # input compound: Cc1[nH]c2c(-c3ccccc3)c(-c3ccccc3)nn2c(=O)c1-c1ccc2nnccc2c1 ; wanted: its pIC50
// result 6.00 to 7.00

// query # input compound: Cc1[nH]c2c(-c3ccccc3)c(-c3ccccc3)nn2c(=O)c1-c1ccc2nc(C(=O)O)ccc2c1 ; wanted: its pIC50
// result > 7.00

// query # input compound: COc1ccc(-c2c(CO)[nH]c3c(C4=CCCCC4)c(-c4ccccc4)nn3c2=O)cc1 ; wanted: its pIC50
// result > 7.00

// query # input compound: COc1ccc(-c2c(Nc3cnc(N)cn3)[nH]c3c(C4=CCCCC4)c(-c4ccccc4)nn3c2=O)cc1 ; wanted: its pIC50
// result > 7.00

// query # input compound: O=c1c(-c2ccc3ncccc3c2)c(O)[nH]c2c(-c3ccccc3)c(-c3ccccc3)nn12 ; wanted: its pIC50
// result > 7.00

// query # input compound: Cc1[nH]c2c(-c3ccccc3)c(-c3ccccc3)nn2c(=O)c1-c1ccc(O)c(Cl)c1 ; wanted: its pIC50
// result > 7.00

// query # input compound: Cc1[nH]c2c(-c3ccccc3)c(-c3ccccc3)nn2c(=O)c1-c1ccc2ncn(C)c2c1 ; wanted: its pIC50
// result > 7.00

// query # input compound: COc1ccc(-c2c(Nc3cc(OC)[nH]n3)[nH]c3c(-c4ccccc4)c(-c4ccccc4)nn3c2=O)cc1 ; wanted: its pIC50
// result > 7.00

// query # input compound: Cc1[nH]c2c(N3CCCCC3)c(-c3ccccc3)nn2c(=O)c1-c1cn[nH]c1 ; wanted: its pIC50
// result > 7.00

// query # input compound: O=C(CO)Nc1[nH]c2c(-c3ccccc3)c(-c3ccccc3)nn2c(=O)c1-c1ccc2ncccc2c1 ; wanted: its pIC50
// result > 7.00

// query # input compound: COc1ccc(-c2c(C)[nH]c3c(-c4cc[nH]c4)c(-c4ccccc4)nn3c2=O)cc1 ; wanted: its pIC50
// result > 7.00

// query # input compound: Cc1[nH]c2c(N3CCCCC3)c(-c3ccccc3)nn2c(=O)c1C1CC1 ; wanted: its pIC50
// result 6.00 to 7.00

// query # input compound: Cc1[nH]c2c(-c3ccccc3)c(-c3ccccc3)nn2c(=O)c1-c1ccc2c(c1)OCCO2 ; wanted: its pIC50
// result > 7.00

// query # input compound: COc1ccc(-c2c(Oc3ccccc3)[nH]c3c(-c4ccccc4)c(-c4ccccc4)nn3c2=O)cc1 ; wanted: its pIC50
// result 5.00 to 6.00

// query # input compound: COc1ccc(-c2c(C)[nH]c3c(-c4ccccc4)c(-c4ccccc4)nn3c2=O)cc1 ; wanted: its pIC50
// result > 7.00

// query # input compound: Cc1[nH]c2c(-c3ccccc3)c(-c3ccccc3)nn2c(=O)c1-c1ccc(O)cc1 ; wanted: its pIC50
// result > 7.00

// query # input compound: Cc1[nH]c2c(N3CCCCC3)c(-c3ccccc3)nn2c(=O)c1-c1ccc2nccnc2c1 ; wanted: its pIC50
// result > 7.00

// query # input compound: COc1ccc(-c2c(O)[nH]c3c(-c4ccccc4)c(-c4ccccc4)nn3c2=O)cc1 ; wanted: its pIC50
// result > 7.00

// query # input compound: COc1ccc(-c2c(C)[nH]c3c(C4=CCCCC4)c(-c4ccccc4)nn3c2=O)cc1 ; wanted: its pIC50
// result > 7.00

// query # input compound: O=c1c(-c2ccc3ncccc3c2)c(Nc2ccn[nH]2)[nH]c2c(C3=CCCCC3)c(-c3ccccc3)nn12 ; wanted: its pIC50
// result > 7.00

// query # input compound: COc1ccc(-c2c(Nc3cnoc3)[nH]c3c(-c4ccccc4)c(-c4ccccc4)nn3c2=O)cc1 ; wanted: its pIC50
// result > 7.00

// query # input compound: Cc1[nH]c2c(N3CCCCC3)c(-c3ccccc3)nn2c(=O)c1-c1cccc(N)c1 ; wanted: its pIC50
// result 6.00 to 7.00

// query # input compound: COc1ccc(-c2c(Nc3ccnc(OC)n3)[nH]c3c(-c4ccccc4)c(-c4ccccc4)nn3c2=O)cc1 ; wanted: its pIC50
// result > 7.00

// query # input compound: COc1ccc(-c2c(NCCO)[nH]c3c(-c4ccccc4)c(-c4ccccc4)nn3c2=O)cc1 ; wanted: its pIC50
// result > 7.00

// query # input compound: COc1cnc2ccc(-c3c(C)[nH]c4c(-c5ccccc5)c(-c5ccccc5)nn4c3=O)cc2n1 ; wanted: its pIC50
// result > 7.00

// query # input compound: Cc1[nH]c2c(N3CCC(F)(F)C3)c(-c3ccccc3)nn2c(=O)c1-c1ccc2nccn2c1 ; wanted: its pIC50
// result 6.00 to 7.00

----------
Provide the reported IC50 of each item.
- tested target: MAT2A (Homo sapiens, UniProt P31153)
- Construct: His6
- assay method text: MAT2A biochemical assay (colorimetric inorganic phosphate detection, PiColorLock)
- run conditions: recombinant His6-tagged MAT2A 1 μg/ml; 60 minutes preincubation at 25° C.; L-Met 80 μM, ATP 100 μM; 60 minutes reaction; read at 623 nm; read-out: MAT2A Inhibition Score

// query # input compound: O=C(Nc1[nH]c2c(-c3ccccc3)c(-c3ccccc3)nn2c(=O)c1-c1ccc2ncccc2c1)C1CC1 ; wanted: its IC50
// result 1 to 10 µM

// query # input compound: COc1ccc(-c2c(CN)[nH]c3c(-c4ccccc4)c(-c4ccccc4)nn3c2=O)cc1 ; wanted: its IC50
// result < 0.1 µM

// query # input compound: Cc1[nH]c2c(N3CCCCC3)c(-c3ccccc3)nn2c(=O)c1-c1ccc(S(C)(=O)=O)cc1 ; wanted: its IC50
// result 1 to 10 µM

// query # input compound: O=c1c(-c2ccc(O)cc2)c(O)[nH]c2c(-c3ccccc3)c(-c3ccccc3)nn12 ; wanted: its IC50
// result < 0.1 µM

// query # input compound: O=c1c(-c2ccc3ncccc3c2)c(Nc2cc[nH]n2)[nH]c2c(-c3ccccc3)c(-c3ccccc3)nn12 ; wanted: its IC50
// result < 0.1 µM

// query # input compound: COc1ccc(-c2c(Nc3ncccc3O)[nH]c3c(-c4ccccc4)c(-c4ccccc4)nn3c2=O)cc1 ; wanted: its IC50
// result < 0.1 µM

// query # input compound: COc1ccc(-c2c(Nc3nnc(O)s3)[nH]c3c(-c4ccccc4)c(-c4ccccc4)nn3c2=O)cc1 ; wanted: its IC50
// result < 0.1 µM

// query # input compound: Cc1[nH]c2c(-c3ccccc3)c(-c3cccc(Cl)c3)nn2c(=O)c1-c1ccc2ncccc2c1 ; wanted: its IC50
// result 1 to 10 µM

// query # input compound: O=C(NCCO)c1[nH]c2c(-c3ccccc3)c(-c3ccccc3)nn2c(=O)c1-c1ccc2ncccc2c1 ; wanted: its IC50
// result 0.1 to 1 µM

// query # input compound: COc1ccc(-c2c(Nc3ccc(Cl)cn3)[nH]c3c(-c4ccccc4)c(-c4ccccc4)nn3c2=O)cc1 ; wanted: its IC50
// result < 0.1 µM
